Value source: ChEMBL document CHEMBL1909046

assay: DRUGMATRIX: Imidazoline I2, Central radioligand binding (ligand: [3H] Idazoxan); type: cell membranes, Rattus norvegicus, Wistar, Cerebral cortex, Membrane; settings: Not Active = under 50% inhibition at 10 µM; read-out: IC50
Attribute: IC50
Give the value in nM but do not write nM after it.

Form: compound = `COC(=O)[C@@H]1[C@H]2C[C@H]3c4[nH]c5ccccc5c4CCN3C[C@@H]2CC[C@@H]1O` ; IC50 = 157

Form: compound = `CNCCC=C1c2ccccc2CCc2ccccc21` ; IC50 = 3860

Form: compound = `COc1ccc(CN(CCN(C)C)c2ccccn2)cc1` ; IC50 = 3340

Form: compound = `CN1C[C@H](C(=O)N[C@]2(C)O[C@@]3(O)[C@@H]4CCCN4C(=O)[C@H](Cc4ccccc4)N3C2=O)C=C2c3cccc4[nH]cc(c34)C[C@H]21` ; IC50 = 3.65
